meta.source: PubChem BioAssay

Biological target: Dual specificity protein phosphatase 6 (Homo sapiens)
Test: DUSP6 inhibitors restoring Erk phosphorylation by chemical complementation, primary imaging in DUSP6-transfected HeLa (AID 609);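 note: phospho-Erk level distribution per well compared with pooled transfected vehicle control wells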
Conditions: HeLa MKP-3 transfected, phospho-Erk imaging KS statistic; at 10 µM; hits give high values; cells stimulated with TPA for 15 min
# reported inhibition; entries follow

{"columns": ["smiles.structure", "inhibition [%]"],
 "data": [
  ["CC(=Nc1ccc(C)c(C)c1)C1=C(O)CCC1=O", 4.72],
  ["Nc1nonc1C(=O)NCCN=Cc1cc(Cc2ccccc2)cc(Br)c1O", -1.98],
  ["CN1c2ccccc2N(C)C1c1c(O)ccc2ccccc12", -2.07],
  ["S=c1[nH]nc(-c2ccco2)n1Cc1ccccc1", 11.9]
]}
